Data provenance: PubChem BioAssay (NCI)

Test system: U251 CNS
Test: NCI-60 one-dose screen, 48 h
Conditions: 10 µM unless noted
About 83,000 compounds went through this panel and 20% of them were active in at least one assay; those are over-represented in the sample as a whole. Activity calls are given as the source filed them. How the source made its calls: active means growth percent below 10; inactive means the rest.
Outcome codes: t for active, f for inactive

[[record]]
molecule = "CC1(C)CC[C@]2(C(=O)O)CC[C@]3(C)C(=CC[C@@H]4[C@@]5(C)CC/C(=N\\OCCC#N)C(C)(C)[C@@H]5CC[C@]43C)[C@@H]2C1"
group_label = "f"

[[record]]
molecule = "COc1cccc(C(=O)Nc2cccc(C#Cc3cccc4[nH]nc(N)c34)c2)c1"
group_label = "f"

[[record]]
molecule = "C=C=COc1cccc(/C(N)=N/C(N)=N/c2nc3ccccc3s2)c1"
group_label = "f"

[[record]]
molecule = "C=C(C=O)[C@@H]1CC[C@]2(COC(C)=O)CC[C@]3(C)C(CC[C@@H]4[C@@]5(C)CC[C@H](OC(C)=O)C(C)(C)[C@@H]5CC[C@]43C)[C@@H]12 (stereo partly drawn)"
group_label = "t"

[[record]]
molecule = "NS(=O)(=O)c1ccc(Nc2nc(N/N=C/c3c[nH]c4ccccc34)nc(Nc3ccccc3)n2)cc1"
group_label = "f"

[[record]]
molecule = "COc1ccc(C2CC(c3cccc(Nc4nc(Cl)nc5cc(OC)c(OC)cc45)c3)=Nc3c(N)nc(N)nc3N2)cc1 (stereo not drawn)"
group_label = "f"

[[record]]
molecule = "NS(=O)(=O)c1ccc(Nc2nc(N/N=C/c3ccccn3)nc(Nc3ccccc3)n2)cc1"
group_label = "t"

[[record]]
molecule = "N/C(=N\\C(N)=N\\c1nc2ccccc2s1)c1cccc(F)c1"
group_label = "f"


* * *

growth overview
System: OVCAR-4 ovarian
Test: NCI-60 one-dose screen, 48 h (100 = growth as untreated, 0 = no growth, -100 = all killed)
Details: 10 µM unless noted
The panel holds about 83,000 compounds, 20% with a hit somewhere; the sample as a whole holds those more often.
recorded-endpoint: growth (%)

[[record]]
input_smiles = "CC(C)(C)n1cc(-c2ccnc(NCCCNS(=O)(=O)c3cccc(F)c3)n2)c(-c2ccc(Cl)c(O)c2)n1"
recorded_endpoint = "growth"
units_label = "%"
measured_result = 101

[[record]]
input_smiles = "CN1CCN(c2nc(-c3csc(-c4ccccc4)n3)cc3ccccc23)CC1"
recorded_endpoint = "growth"
units_label = "%"
measured_result = 72.7

[[record]]
input_smiles = "O=C(O)c1ccc(-n2cc(CNc3cc(F)c(F)c(F)c3)c(-c3cccc(F)c3)n2)cc1"
recorded_endpoint = "growth"
units_label = "%"
measured_result = 95.5

[[record]]
input_smiles = "CC(=O)Nc1cccc(Nc2nc(N[C@H](C)c3ccccc3)c3ccccc3n2)c1"
recorded_endpoint = "growth"
units_label = "%"
measured_result = 34.9

[[record]]
input_smiles = "O=C(Nc1cccc(C(F)(F)F)c1)c1cc(-c2ccc(F)cc2F)ccc1O"
recorded_endpoint = "growth"
units_label = "%"
measured_result = 12.4


* * *

growth overview
Tested on: NCI-H226 lung
Experiment: NCI-60 one-dose screen, 48 h (100 = growth as untreated, 0 = no growth, -100 = all killed)
Conditions: 10 µM unless noted
Procedure: Growth inhibition of the NCI-H226 human Non-Small Cell Lung tumor cell line is measured as a screen for anti-cancer activity. Cells are grown in 96 well plates and exposed to the test compound for 48 hours. Compounds are tested at a single concentration, which is 10^-5 M for most compounds. The reported endpoint is percent growth (GI% or GIPRCNT), where numbers from 0 - 100% represent growth inhibition, and numbers from -100% - 0 represent cell death. […]
About 83,000 compounds went through this panel and 20% of them were active in at least one assay; those are over-represented in the sample as a whole.
recorded-endpoint: growth (%)

[[record]]
molecule = "Nc1nc(N)c2c(n1)NC(c1ccc(C(F)(F)F)cc1)CC(c1ccc(Nc3nc(NCCO)nc(N4CCOCC4)n3)cc1)=N2 (centres undefined)"
units_label = "%"
measured_result = 70.2

[[record]]
molecule = "Cc1ccc(NC(=O)c2ccc(CN3CCOCC3)c(C(F)(F)F)c2)cc1Oc1ccc(-c2[nH]nc3ncnc(N)c23)cc1"
units_label = "%"
measured_result = 66

[[record]]
molecule = "COc1cc(OC)c(/C=C/S(=O)(=O)Cc2ccc(OC)c(NCC(=O)NO)c2)c(OC)c1"
units_label = "%"
measured_result = 25.6

[[record]]
molecule = "CCNC(=O)N1CCc2cc(OC)c(OCCc3ccc(OC)cc3)cc2C1c1ccc([N+](=O)[O-])cc1C (centres undefined)"
units_label = "%"
measured_result = 38

